Where do the numbers come from? From ChEMBL document CHEMBL5046323.

- Assay notes: Clearance in iv dosed rat administered as cassette dose
- Type: ADME, organism-based
- Conditions used: in vivo
This listing pairs molecules with measured clearance.

| Structure smiles string | clearance [mL/min/kg] |
| --- | --- |
| C[C@H]1CN(C(=O)[C@H](C)N2CCC(n3c(=O)[nH]c4ccccc43)CC2)CCN1 | 39 |
| C[C@@H](CN1CCC2(CC1)OC(=O)Nc1ccccc12)NC(=O)c1ccc(F)cc1 | 40 |
| C[C@@H]1CN(C(=O)[C@H](C)N2CCC(n3c(=O)[nH]c4ccccc43)CC2)CCN1 | 39 |

###

- Assay notes: Microsomal stability in human liver microsomes assessed as intrinsic clearance
- Type: ADME, Microsome
- Conditions used: read-out: CLH

| Structure smiles string | Value relation sign | CLint scaled (mL/min/kg) |
| --- | --- | --- |
| C[C@@H](CN1CCC2(CC1)OC(=O)Nc1ccccc12)NC(=O)c1ccc(F)cc1 | = | 39 |
| C[C@@H](CN1CCC2(CC1)c1ccccc1NC(=O)N2C)NC(=O)c1ccc(F)cc1 | = | 39 |
| C[C@@H](CN1CCC(N2CCNC2=O)CC1)NC(=O)c1ccc(F)cc1 | < | 4 |
| C[C@@H](CN1CCC(N2C(=O)Cc3ccccc32)CC1)NC(=O)c1ccc(F)cc1 | = | 42 |
| C[C@@H](CN1CCC2(CC1)C(=O)NCN2c1cccc(F)c1)NC(=O)c1ccc(Br)cc1 | = | 89 |
| C[C@@H](CN1CCC2(CC1)OC(=O)Nc1cc(F)ccc12)NC(=O)c1ccc(F)cc1 | = | 68 |
